method_summary: protease stability score; higher = more stable; yeast display proteolysis, trypsin and chymotrypsin;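 note: relative to predicted unfolded state with 0 unfolded-like and 1 meaning tenfold more protease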
Known protease stability score of a selection of sequences
// print number alone

Solved cases below.
>  <chain_sequence>
SEDEKWIRHAIRLLSEALETGDESMEHHLMDPNVKIRIDGVQYIGWEHWKKFVDRFDHEKIEHVHIRHIEVFNGRVDLDGFVHIILFVDGQEIRETRRTRIIVLKYNGKWLIESIEIE

>  <readout_kind>
protease stability score

>  <value_observed>
2.3

$$$$
>  <chain_sequence>
SHLKEDLRRALEKELQDLRTGDEEKIVRMMDPNVRLHIDGVELHGRDWLSRYAKEMRTEHIELRRFETQGNKIHIDTEVDLRYGDFRRDVHVEIIAIKVDGRWVKHETEVR

>  <readout_kind>
protease stability score

>  <value_observed>
-0.081

$$$$
>  <chain_sequence>
SEEETDAKIAYHLEYELLKTGDEKMIHENLDPDARFISDVNGVEHRDHGRENFSRSMSEWLKRFGVDHMDIRHVRFFNGKIDMEVEINVNGVRIDLHLHSHKINGQWIITRVDIRID

>  <readout_kind>
protease stability score

>  <value_observed>
1.24

$$$$
>  <chain_sequence>
DEEHNHFERLTRWFEHVWRTGNEEFFRELADPNARMRINGQEYVGREELVRTLHEWLKILGAKHHRKKDEEIQGEKVILIGEVDIDGRTLRHHVHFRIINGRLHSLEVEVK

>  <readout_kind>
protease stability score

>  <value_observed>
1.3

$$$$
>  <chain_sequence>
SEDEEIARRYLEFFLHILRTGDFEEMLRLLDPHVRTHVDGREKHGRENVTTFFMRWWEDYGFDHVTLEDFRVHIYGEKIHIKIDGYFHFNGRSVDVKIHVIAKKINGRWLLHEMHFEVR

>  <readout_kind>
protease stability score

>  <value_observed>
1.26

$$$$

Sample DEEKRDVDDAKEVWDRIFKTGDEHQLERNFDPNVRQHIDGREHVGREEFRKEFHKILLLLGVKHLRIEFHDEEYQGDKIILRGTLFFEVNGRIEIWIVTIIARKVNGQWLVHTVHHN — what was its protease stability score?
0.425

Sample DEEDELMKEYFELFWRDLLTGNEELLENLVDPHVRVKVGDKEFHGRHLLSKLASDMGVDHIQIEDMRVQGDKLSIDTTVDVNGKRRRMTLRARKVNGRWFFTELEVR — what was its protease stability score?
1.5

Sample SHEEHHLYEVAEMLLRWWRTGDEDSLYKFIDPHARVEIGEYSVHGREHIVRLMSRHLREIRLKDTDVHRIDVINGQTVLNVRLRGEINGVDTNVDARLHVVVVDGVVHSIHIEHI — what was its protease stability score?
1.24

Sample SEDERDMERFNRLVSHAMETGDEDTLNHLADPNVRVHIGDKDLHGREDYSRWLHELIRRVDYMEVHIHDERLQGDKAIVDSRIRLKFDGVETRIETILYLKKFDGRWRMTTFELK — what was its protease stability score?
0.705

Sample SEEEERAEELVRLWEHDLKTGNEHLLRELMDPNTRLVVNGRHTHGREHAVNILLQFVEEWRIESVHLHRWRVIGDKIDLDIHIHGRINGVEHHIKSILVLVKINGKWLIHTIVIH — what was its protease stability score?
1.02

Sample DEDEKHARDLMKLWQLAMFTGDEDTLKRLVDPDMRLKYGEFELHGREDLLRFFKHWRLESRLETTDVRFQGDKLVAYGVRRHVSHIDGVEVEETRRVITYILKVDGQWYVKSVEIR — what was its protease stability score?
1.67
